# Test system: Bacillus subtilis DB104 (SP-AmyQ fusion secretion)
# protocol: AmyQ secretion efficiency, weighted average sort bin (1 = best secretion, 10 = worst) (bin number (weighted average, 1-10)); higher = lower secretion efficiency
Decide by AmyQ secretion efficiency: equal to or exceeding 4 means yes, less means no.

[
  {
    "inputSequence": "MPYLKRVLLLLVTGLFMSLFAVTATASAEDD",
    "cat": "no"
  },
  {
    "inputSequence": "MKVCQKSIKRFLVSLIIGTFVISVPFMANAQSD",
    "cat": "no"
  },
  {
    "inputSequence": "MAIIIAIIAAVIVIAALITFNVANASPG",
    "cat": "yes"
  },
  {
    "inputSequence": "MGLGKKLSVAVAASFMSLSISLPGEQAAEG",
    "cat": "no"
  },
  {
    "inputSequence": "MKKWMITIAMLILAGIALFVFISPIKSHKT",
    "cat": "yes"
  },
  {
    "inputSequence": "MKLKSKLLLSCLALSTVFVATTIANIPTH",
    "cat": "yes"
  },
  {
    "inputSequence": "MRKVITCVMAASLTLGSLLPAGYATAKED",
    "cat": "no"
  },
  {
    "inputSequence": "MKWMCSICCAAVLLAGGAFQAEAV",
    "cat": "yes"
  },
  {
    "inputSequence": "MHLIRAAGAVCLAVVLIAGCRFNEDQHQAEGRRR",
    "cat": "yes"
  },
  {
    "inputSequence": "MKRTWNVCLTALLSVLLVAGSVPFHMEAKKP",
    "cat": "no"
  },
  {
    "inputSequence": "MKRMIVRMTLMMTLPLLIVCLAFSSFSASARAASE",
    "cat": "no"
  },
  {
    "inputSequence": "MKRFILVLSFLSIIVAYPIQTNASPE",
    "cat": "no"
  }
]
